Data provenance: patent US20210024639A1

- test.target: T1, human MET extracellular domain (ECD) (human, UniProt P08581 25-932)
- T1 construct: range 1-932; recombinant ECD; also called hMET; human MET ECD
- T1 sequence (P08581 25-932 limits assumed, form in doubt): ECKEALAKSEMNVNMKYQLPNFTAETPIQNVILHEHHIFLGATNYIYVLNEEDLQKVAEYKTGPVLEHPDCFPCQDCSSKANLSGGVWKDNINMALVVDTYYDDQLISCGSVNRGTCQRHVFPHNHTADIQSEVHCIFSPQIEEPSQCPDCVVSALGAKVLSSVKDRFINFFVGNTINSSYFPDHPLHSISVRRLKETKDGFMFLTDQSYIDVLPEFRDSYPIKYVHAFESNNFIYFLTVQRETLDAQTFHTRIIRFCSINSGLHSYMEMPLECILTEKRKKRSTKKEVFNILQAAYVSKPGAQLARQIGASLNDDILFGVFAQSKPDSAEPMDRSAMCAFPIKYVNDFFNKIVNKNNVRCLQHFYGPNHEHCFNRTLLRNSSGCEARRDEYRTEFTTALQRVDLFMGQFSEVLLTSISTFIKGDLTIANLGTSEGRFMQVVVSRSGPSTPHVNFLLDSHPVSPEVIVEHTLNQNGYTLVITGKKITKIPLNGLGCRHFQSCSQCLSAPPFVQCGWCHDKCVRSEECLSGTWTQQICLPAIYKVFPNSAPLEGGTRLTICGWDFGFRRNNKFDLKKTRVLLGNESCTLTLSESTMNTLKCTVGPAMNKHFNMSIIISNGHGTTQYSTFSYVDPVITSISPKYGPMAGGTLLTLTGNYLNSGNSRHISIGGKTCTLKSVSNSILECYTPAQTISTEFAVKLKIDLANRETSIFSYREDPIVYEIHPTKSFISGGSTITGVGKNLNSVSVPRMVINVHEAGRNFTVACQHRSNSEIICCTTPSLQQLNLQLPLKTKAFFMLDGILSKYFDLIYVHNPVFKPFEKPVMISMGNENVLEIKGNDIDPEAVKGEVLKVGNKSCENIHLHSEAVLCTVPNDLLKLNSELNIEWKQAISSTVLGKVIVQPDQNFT
- procedure.summary: ELISA, periplasmic Fab on MET ECD

{"binder": "Fab 74C8 (Fab, V domains shown, llama Fab (VH-CH1, lambda VL-CL) with MYC flag, crude periplasmic extract) VH: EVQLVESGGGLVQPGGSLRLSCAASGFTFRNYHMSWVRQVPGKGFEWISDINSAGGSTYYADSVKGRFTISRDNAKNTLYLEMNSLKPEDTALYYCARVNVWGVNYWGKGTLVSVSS VL: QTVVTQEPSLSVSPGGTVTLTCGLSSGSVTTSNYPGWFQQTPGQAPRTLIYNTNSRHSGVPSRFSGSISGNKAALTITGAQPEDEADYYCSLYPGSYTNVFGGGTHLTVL", "unit.abbreviation": "AU", "ELISA OD450": 2.98}
{"binder": "Fab 76H10 (Fab, V domains shown, llama Fab (VH-CH1, lambda VL-CL) with MYC flag, crude periplasmic extract) VH: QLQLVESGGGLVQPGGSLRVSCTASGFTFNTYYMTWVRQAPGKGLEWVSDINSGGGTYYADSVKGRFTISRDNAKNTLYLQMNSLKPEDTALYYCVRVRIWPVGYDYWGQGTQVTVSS VL: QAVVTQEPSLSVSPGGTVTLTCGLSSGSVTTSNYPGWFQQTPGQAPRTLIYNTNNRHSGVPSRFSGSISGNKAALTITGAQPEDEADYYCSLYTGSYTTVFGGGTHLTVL", "unit.abbreviation": "AU", "ELISA OD450": 3.7}
{"binder": "Fab 72F8 (Fab, V domains shown, llama Fab (VH-CH1, lambda VL-CL) with MYC flag, crude periplasmic extract) VH: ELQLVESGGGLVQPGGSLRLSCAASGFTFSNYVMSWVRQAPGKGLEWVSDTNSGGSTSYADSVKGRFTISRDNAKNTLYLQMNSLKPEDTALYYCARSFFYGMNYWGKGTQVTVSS VL: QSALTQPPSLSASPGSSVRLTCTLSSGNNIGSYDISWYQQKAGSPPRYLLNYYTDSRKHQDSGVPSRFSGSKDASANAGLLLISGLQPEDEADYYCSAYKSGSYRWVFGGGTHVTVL", "unit.abbreviation": "AU", "ELISA OD450": 3.38}
